Hey, just so you know, these numbers are from the supplement of paper PMC9732359.

assay: protein stability index of a GFP-peptide fusion (yeast GPS) (PSI 1-4); higher = more stable; sorted into four equal gates, so the index is relative within each strain; conditions: ubr1∆
MEASURE: protein stability index
Just the number.

In: Need protein stability index, item TEGPSDKKLNLNLPLQF [SNF12]
Out: 2.87

In: Need protein stability index, item HGMTLRESFEDNVVRFL [RPO21]
Out: 3.17

In: Need protein stability index, item DINVELFPVAAQDSLTV [RPB8]
Out: 1.94

In: Need protein stability index, item VEYVDPTVNRVPNYEVS [RPN7]
Out: 3.8

---

test: protein stability index of a GFP-peptide fusion (yeast GPS) (PSI 1-4); higher = more stable; sorted into four equal gates, so the index is relative within each strain; conditions: doa10∆
Please provide measured protein stability index for the entries that follow.
Just the number.

In: Need protein stability index, item SEDSMNVQLRDVIATEP [SMD3]
Out: 2.94

In: Need protein stability index, item LDTLPSEFDSRVKAMEV [RPT5]
Out: 2.93

In: Need protein stability index, item LGFEVKDQALIGTINSI [SIR2]
Out: 2.12

In: Need protein stability index, item AESEAITVTAKQQPTMQ [SWI3]
Out: 3.14

In: Need protein stability index, item HPAYLFKGLETPLKARQ [YLR018C/POM34]
Out: 2.16
